Let's look at some molecules and their measured absorption maximum.
assay: solvent given as SMILES; settings: in CC#N
Value type: absorption maximum (nm)

Smiles text: CCOC(=O)c1c2c3c(cccc3c3cc4ccccc4cc13)N(C)C2=O
Value type: absorption maximum
Reading unit: nm
Readout value: 398
//
Smiles text: CSc1sc(C(N)=O)c2nnn(C)c(=O)c12
Value type: absorption maximum
Reading unit: nm
Readout value: 394.5
//
Smiles text: COc1nc(Cl)nc(Nc2ccc3cc4ccccc4cc3c2)n1
Value type: absorption maximum
Reading unit: nm
Readout value: 397
//
Smiles text: C=CCNc1ccc2ccc3oc4cc(=[N+]5CCCC5)ccc-4nc3c2c1
Value type: absorption maximum
Reading unit: nm
Readout value: 576
//
Smiles text: O=C1O/C(=C\c2cccs2)c2ccccc21
Value type: absorption maximum
Reading unit: nm
Readout value: 355
//
Smiles text: C[n+]1ccc(/C=C/c2cc[n+](C)cc2)cc1
Value type: absorption maximum
Reading unit: nm
Readout value: 317
//
Smiles text: CCN(CC)c1ccc2cc(/C=C/C3=C4CC/C(=C\c5cc6ccc(N(CC)CC)cc6oc5=O)C4=[O+][B-](F)(F)O3)c(=O)oc2c1
Value type: absorption maximum
Reading unit: nm
Readout value: 655
//
Smiles text: c1ccc(Nc2nc(Nc3ccccc3)nc(Nc3ccc4c5cccc6cccc(c7cccc3c74)c65)n2)cc1
Value type: absorption maximum
Reading unit: nm
Readout value: 444
//
Smiles text: CCc1c(C)[nH]c(C2=[N+]3C(=Cc4c(C)cc(C)n4[B-]3(F)F)c3ccccc32)c1C
Value type: absorption maximum
Reading unit: nm
Readout value: 607
//
Smiles text: CC1=CC(C)=[N+]2C1=C(c1ccc(N3CCOCC3)cc1)c1c(C)cc(C)n1[B-]2(F)F
Value type: absorption maximum
Reading unit: nm
Readout value: 496

* * *

assay: solvent given as SMILES; conditions: in ClCCl
Binarize absorption maximum at 400 nm; below is true, at or above is false.

Smiles text: CCC1(CC)c2cc(C#Cc3cc(C#Cc4ccc5c(c4)C(CC)(CC)c4cc(N(c6ccccc6)c6ccccc6)ccc4-5)c4ccc5c(C#Cc6ccc7c(c6)C(CC)(CC)c6cc(N(c8ccccc8)c8ccccc8)ccc6-7)cc(C#Cc6ccc7c(c6)C(CC)(CC)c6cc(N(c8ccccc8)c8ccccc8)ccc6-7)c6ccc3c4c65)ccc2-c2ccc(N(c3ccccc3)c3ccccc3)cc21
Discrete label: false
//
Smiles text: Brc1ccc(/C=C/c2cnc3ccccc3n2)cc1
Discrete label: true
//
Smiles text: N#C/C(=C\c1cn(-c2ccccc2)nc1-c1ccccc1)c1nc2ccccc2s1
Discrete label: true
//
Smiles text: FC(F)(F)c1ccc(C2=Cc3ccccc3[Si]2(c2ccccc2)c2ccccc2)cc1
Discrete label: true

* * *

Let's look at some molecules and their measured absorption maximum.
assay: solvent given as SMILES; settings: in CO

Smiles text: CCOC(=O)COc1ccc(/C=C/c2cc(C)c3n2[B-](F)(F)[N+]2=C(c4[nH]c(C)cc4C)c4ccccc4C2=C3)cc1
Reading unit: nm
absorption maximum: 671
//
Smiles text: CCOC(=O)C1=CN(c2ccccc2)C=C(C(=O)OCC)C1c1ccccc1
Reading unit: nm
absorption maximum: 366
//
Smiles text: Cc1ccc(-n2c3ccccc3c3cc(C(=C(C#N)C#N)c4ccccc4)ccc32)cc1
Reading unit: nm
absorption maximum: 447
//
Smiles text: CCC1=C(C)C2=Cc3cc(I)c(I)n3[B-](F)(F)[N+]2=C1C
Reading unit: nm
absorption maximum: 526.5

* * *

test: solvent given as SMILES; conditions: in O

Smiles text: CC[n+]1nc2cc3c4c(c2c2cc(F)ccc21)CCCN4CCC3
absorption maximum, nm: 494
--
Smiles text: CC[n+]1c(-c2ccccc2)c2cc(NC(N)=[NH2+])ccc2c2ccc(N)cc21
absorption maximum, nm: 454
--
Smiles text: c1ccc(-c2nc(-c3cccc4ccccc34)n3ccccc23)cc1
absorption maximum, nm: 367
--
Smiles text: O=C1Nc2ccccc2/C1=C/C(=O)c1ccc(Cl)cc1Cl
absorption maximum, nm: 340
--
Smiles text: COc1ccc(-c2cc(N3CCCCC3)c(C#N)c3c2-c2cccc4cccc-3c24)cc1
absorption maximum, nm: 430
--
Smiles text: [NH3+]c1cc([NH3+])cc(-c2nc3ccccc3s2)c1
absorption maximum, nm: 315
--
Smiles text: Cc1ccc(O)cc1
absorption maximum, nm: 276
--
Smiles text: CC[n+]1c(-c2ccccc2)c2cc(-n3cccc3)ccc2c2ccc(N)cc21
absorption maximum, nm: 462
--
Smiles text: CC[n+]1c(/C=C/c2c([O-])ccc3ccc(=O)oc23)sc2ccccc21
absorption maximum, nm: 492.76
--
Smiles text: [C-]#[N+]c1ccc(-c2ccc(N)cc2)cc1
absorption maximum, nm: 298
--
Smiles text: COc1cc(OC)c2ccc(=O)oc2c1
absorption maximum, nm: 327
--
Smiles text: CCNc1ccc2c(c1)C(C)(C)C(=O)C=C2
absorption maximum, nm: 402
--
Smiles text: CC[N+]1(CC)CN2C(=N1)C(C(=O)O)=Cc1ccc(C)cc12
absorption maximum, nm: 370
--
Smiles text: O=[N+]([O-])c1ccc(/C=C/c2c[nH]c3ccccc23)cc1
absorption maximum, nm: 418

* * *

Let's look at some compounds and their measured absorption maximum.
assay: solvent given as SMILES; conditions: in CCO
Value type: absorption maximum (nm)

Compound: CNc1ccc2c(c1)C(=O)c1ccccc1-2
Value type: absorption maximum
Readout value: 511
--
Compound: O=C1/C(=C/C=C/c2cc3c4c(c2)CCCN4CCC3)CC/C1=C\C=C\c1cc2c3c(c1)CCCN3CCC2
Value type: absorption maximum
Readout value: 538
--
Compound: N#CC(C#N)=Cc1cn(-c2ccccc2)nc1-c1ccc([N+](=O)[O-])cc1
Value type: absorption maximum
Readout value: 346
--
Compound: CCNc1cc2c(cc1C)C(c1ccccc1C(=O)O)=C1CCCC(/C=C/C3=[N+](C)c4ccccc4C3(C)C)=C1O2
Value type: absorption maximum
Readout value: 688
--
Compound: CN(C)c1ccc2c(c1)C(=O)c1ccccc1-2
Value type: absorption maximum
Readout value: 509
--
Compound: CC1(C)CC(=O)c2cc(F)cc(F)c2N1
Value type: absorption maximum
Readout value: 386
--
Compound: CN1C(=CC2=C([O-])C(=O)C2=C(C#N)C#N)Sc2ccccc21
Value type: absorption maximum
Readout value: 481
--
Compound: COC(=O)c1nc(-c2cccc3ccccc23)oc1C
Value type: absorption maximum
Readout value: 309
--
Compound: CCN(CC)c1ccc2c(C#N)c(/C=C(\C#N)c3nc4ccccc4s3)c(=O)oc2c1
Value type: absorption maximum
Readout value: 602
--
Compound: CC1CC=C(c2ccc(-c3ccc(C#N)s3)s2)CC1 (centres undefined)
Value type: absorption maximum
Readout value: 358
--
Compound: CN(C)c1ccc(/C=C/c2ccc(-c3cc(-c4ccccn4)nc(-c4ccccn4)c3)cc2)cc1
Value type: absorption maximum
Readout value: 379
--
Compound: CSc1sc(C(N)=O)c2nnn(C)c(=O)c12
Value type: absorption maximum
Readout value: 397
--
Compound: C#CCN1C(=O)/C(=C/c2cc(OC(C)C)ccc2OC(C)C)N=C1C
Value type: absorption maximum
Readout value: 399
--
Compound: CC\C=C/C=C/C=C/C=C\CCCCCCCC(=O)O
Value type: absorption maximum
Readout value: 319.2

* * *

assay: solvent given as SMILES; details: in Cc1ccccc1

Compound: N#Cc1cc(-c2ccc(N3c4ccccc4Oc4ccccc43)cc2)c(-c2ccc(N3c4ccccc4Oc4ccccc43)cc2)cc1C#N
absorption maximum (nm): 406
//
Compound: COc1cc(-c2nnc(-c3ccc4ccc5cccc6ccc3c4c56)o2)cc(OC)c1OC
absorption maximum (nm): 396
//
Compound: O=Cc1cc(C=O)c2ccc3c(N4CCCCC4)cc(N4CCCCC4)c4ccc1c2c43
absorption maximum (nm): 516
//
Compound: C=CC1CN2CCC1CC2[C@@H](OCc1ccccc1)c1ccnc2ccc(O)cc12 (stereo partly specified)
absorption maximum (nm): 335
//
Compound: CC1(C)OB(c2cc3ccc4cccc5ccc(c2)c3c45)OC1(C)C
absorption maximum (nm): 385
//
Compound: CC(C)(C)c1ccc2c(c1)c1cc(C(C)(C)C)ccc1n2-c1ccc(-c2nc3cc(C#N)c(C#N)cc3nc2-c2ccc(-n3c4ccc(C(C)(C)C)cc4c4cc(C(C)(C)C)ccc43)cc2)cc1
absorption maximum (nm): 443

* * *

assay: solvent given as SMILES; settings: in C1CCCCC1

Smiles text: CNc1ccc2c(c1)-c1ccccc1C2=O
absorption maximum, nm: 389

Smiles text: COc1ccc2c3c(c4ccc(OC)cc4c2c1)C(C)(C)c1cc(-c2ccccc2)ccc1-3
absorption maximum, nm: 389

Smiles text: COc1ccc2c3c(OC)c4ccccc4c(OC)c3n(C)c2c1
absorption maximum, nm: 392

* * *

test: solvent given as SMILES; conditions: in CCO
Let's look at some molecules and their measured absorption maximum.

Smiles text: COc1cc(OC)c2c(c1)C(=O)c1cc(OC)cc(OC)c1-2
absorption maximum (nm): 506
--
Smiles text: CN(C)c1ccc2c(-c3cc(C(=O)[O-])ccc3C(=O)[O-])c3ccc(=[N+](C)C)cc-3oc2c1
absorption maximum (nm): 538
--
Smiles text: O=Cc1c(O)c(-c2nc3ccccc3s2)cc2ccccc12
absorption maximum (nm): 349
--
Smiles text: Cc1cc2nc3cc(C)c(N)cc3[n+](-c3ccccc3)c2cc1N
absorption maximum (nm): 534
--
Smiles text: c1ccc2c(-c3cncnc3)c3ccccc3c(-c3cncnc3)c2c1
absorption maximum (nm): 394
--
Smiles text: COc1c2ccccc2c(-c2ccccc2)c2ccccc12
absorption maximum (nm): 378
--
Smiles text: O=C(O)CCNc1cccc2ccccc12
absorption maximum (nm): 330
--
Smiles text: CCC1=C(C)C2=C(C)c3cccn3[B-](F)(F)[N+]2=C1C
absorption maximum (nm): 497
--
Smiles text: Nc1ccc2c(c1)C(=O)c1ccc(N)cc1C2=O
absorption maximum (nm): 477
--
Smiles text: C[N+]1=C(/C=C/C2=C3Oc4c(cc5c6c4CCCN6CCC5)C(c4ccccc4C(=O)O)=C3CCC2)C(C)(C)c2c1ccc1ccccc21
absorption maximum (nm): 728
--
Smiles text: CCN(CC)/C(C)=N\c1ccc2c3c(cccc13)C(=O)c1ccccc1-2
absorption maximum (nm): 473
--
Smiles text: COc1cccc2c1-c1ccccc1C2=O
absorption maximum (nm): 432
--
Smiles text: c1ccc2c(-n3cnc4ccccc43)cccc2c1
absorption maximum (nm): 284
--
Smiles text: CC(C)[Si]1(C(C)C)c2cc(C=C(C#N)C#N)ccc2-c2ccc(N(c3ccccc3)c3ccccc3)cc21
absorption maximum (nm): 467
--
Smiles text: CC1(C)CC(=O)c2ccccc2N1
absorption maximum (nm): 383
--
Smiles text: COc1ccc2c(-c3nc(-c4ccccc4)no3)cc(=O)oc2c1
absorption maximum (nm): 344
--
Smiles text: COc1ccc(-n2nc(C#N)c(N3CCCC3)n2)cc1
absorption maximum (nm): 339
--
Smiles text: CCNc1cc2c(cc1C)C(c1ccccc1C(=O)O)=C1CCCC(/C=C/C3=[N+](C)c4ccc5ccccc5c4C3(C)C)=C1O2
absorption maximum (nm): 708
--
Smiles text: Nc1ccc2c(c1)-c1ccccc1C2=O
absorption maximum (nm): 429
--
Smiles text: CCCC(=O)c1c2c(c(C(=O)CCC)c3c1OC(CC(=O)OC)(C(=O)OC)O3)OCO2
absorption maximum (nm): 428
--
Smiles text: CCN(CC)c1cc(F)c(C(=O)c2cc(F)c(N(CC)CC)cc2F)cc1F
absorption maximum (nm): 369
--
Smiles text: CCCCCCCN1C(=CC2=C([O-])C(=CC3=[N+](CCCCCCC)c4ccccc4C3(C)C)C2=C(C#N)C#N)C(C)(C)c2ccccc21
absorption maximum (nm): 673
--
Smiles text: O=Cc1cnc(-c2c3ccccc3cc3ccccc23)nc1
absorption maximum (nm): 381
--
Smiles text: CC1(C)CC(/C=C/c2ccc(-n3ccnc3)cc2)=CC(=C(C#N)C#N)C1
absorption maximum (nm): 391
--
Smiles text: COc1cc(OC)c2ccc(=O)oc2c1
absorption maximum (nm): 324
--
Smiles text: COc1ccc(/C=C/C2=NC(=C\c3ccncc3)/C(=O)N2C)cc1
absorption maximum (nm): 433
--
Smiles text: C=CCNc1ccc2c(ccc3oc4cc(=[N+](C)C)ccc-4nc32)c1
absorption maximum (nm): 601
--
Smiles text: CC(C)[Si]1(C(C)C)c2cc(C#N)ccc2-c2ccc(N(c3ccccc3)c3ccccc3)cc21
absorption maximum (nm): 385
--
Smiles text: CN(C)c1ccc(C#Cc2ccc3ccc4c(C#Cc5ccc(N(C)C)cc5)ccc5ccc2c3c54)cc1
absorption maximum (nm): 431

This collection of values is drawn from the Deep4Chem optical property database.
